Biological target: KRAS WT (Homo sapiens (Human), UniProt P01116+P62937)
Sequence (P01116-2 other isoform, or with tags, fused parts or gaps, one chain of several): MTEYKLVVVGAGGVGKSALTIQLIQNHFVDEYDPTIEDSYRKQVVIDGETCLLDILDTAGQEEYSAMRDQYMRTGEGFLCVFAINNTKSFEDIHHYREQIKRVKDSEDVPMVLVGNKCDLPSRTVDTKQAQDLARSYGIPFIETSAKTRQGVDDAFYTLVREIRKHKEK
Test: Ras-Raf (BRAF RBD) disruption / FRET / MOA assay, KRAS WT
Assay type: biochemical
Conditions: read-out: IC50* KRAS WT FRET data
Readings of IC50 for the listed molecules

molecule	IC50
CCn1c(-c2cccnc2[C@H](C)OC)c2c3cc(ccc31)-c1cccc(c1)C[C@H](NC(=O)[C@H](C(C)C)N(C)C(=O)C1(F)CCN(C(=O)C#CC(C)(C)N(C)C)CC1)C(=O)N1CCC[C@H](N1)C(=O)OCC(C)(C)C2 (atropisomer, axis not shown)	100 to 1000 nM
C=CC(=O)N1CCCN(C(=O)N(C)[C@H](C(=O)N[C@H]2Cc3cc(O)cc(c3)-c3ccc4c(c3)c(c(-c3cccnc3[C@H](C)OC)n4CC)CC(C)(C)COC(=O)[C@@H]3CCCN(N3)C2=O)C(C)C)CC1 (atropisomer, axis not shown)	10 to 100 nM
CCn1c(-c2cnccc2C(C)C)c2c3cc(ccc31)-c1cc(O)cc(c1)C[C@H](NC(=O)[C@H](C(C)C)N(C)C(=O)[C@H]1CCN(C(=O)C#CCN(C)C)C1)C(=O)N1CCC[C@H](N1)C(=O)OCC(C)(C)C2	100 to 1000 nM
C=CC(=O)N(C)[C@H]1CN(C(=O)N(C)[C@H](C(=O)N[C@H]2Cc3nc(cs3)-c3ccc4c(c3)c(c(-c3cccnc3[C@H](C)OC)n4CC)CC(C)(C)COC(=O)[C@@H]3CCCN(N3)C2=O)C(C)C)C[C@@H]1F (atropisomer, axis not shown)	100 to 1000 nM
CCn1c(-c2ccccc2CCOC)c2c3cc(ccc31)-c1cc(O)cc(c1)C[C@H](NC(=O)[C@H](C(C)C)N(C)C(=O)c1ccc(NC(=O)/C=C/CN(C)C)nc1)C(=O)N1CCC[C@H](N1)C(=O)OCC(C)(C)C2	> 10000 nM
CCn1c(-c2cccnc2COC)c2c3cc(ccc31)-c1cc(O)cc(c1)C[C@H](NC(=O)[C@H](C(C)C)N(C)C(=O)c1ccc(NC(=O)/C=C/CN(C)C)cn1)C(=O)N1CCC[C@H](N1)C(=O)OCC(C)(C)C2	1000 to 10000 nM
C=CC(=O)N1CC[C@H](C(=O)N(C)[C@H](C(=O)N[C@H]2Cc3cc(O)cc(c3)-c3ccc4c(c3)c(c(-c3cccnc3[C@@H](OC)C3CC3)n4CC)CC(C)(C)COC(=O)[C@@H]3CCCN(N3)C2=O)C(C)C)C1 (atropisomer, axis not shown) [Example A206]	1000 to 10000 nM
C=CC(=O)N1CCN(C(=O)N(C)[C@H](C(=O)N[C@H]2Cc3nc(cs3)-c3ccc4c(c3)c(c(-c3cccnc3[C@H](C)OC)n4CC)CC(C)(C)COC(=O)[C@@H]3CCCN(N3)C2=O)C(C)C)C[C@H]1C (atropisomer, axis not shown)	10 to 100 nM
C=CC(=O)N1CCO[C@H]2CN(C(=O)N(C)[C@H](C(=O)N[C@H]3Cc4nc(cs4)-c4ccc5c(c4)c(c(-c4cccnc4[C@H](C)OC)n5CC)CC(C)(C)COC(=O)[C@@H]4CCCN(N4)C3=O)C(C)C)C[C@H]21 (atropisomer, axis not shown)	1000 to 10000 nM
CCn1c(-c2cccnc2[C@H](C)OC)c2c3cc(ccc31)-c1cccc(c1)C[C@H](NC(=O)[C@@H](COC1CN(C(=O)C#CC(C)(C)O)C1)C(C)C)C(=O)N1CCC[C@H](N1)C(=O)OCC(C)(C)C2 (atropisomer, axis not shown)	1000 to 10000 nM
C=CC(=O)N1CC[C@H](C(=O)N(C)[C@H](C(=O)N[C@H]2Cc3nc(cs3)-c3ccc4c(c3)c(c(-c3cccnc3[C@H](C)OC)n4CC)CC(C)(C)CCC[C@@H]3CCCN(N3)C2=O)C(C)C)C1 (atropisomer, axis not shown)	> 10000 nM
CCn1c(-c2cccnc2[C@H](C)OC)c2c3cc(ccc31)-c1cccc(c1)C[C@H](NC(=O)[C@H](C(C)C)N(C)C(=O)[C@H]1CCN(C(=O)C#CC3(N(C)C)CCOCC3)C1)C(=O)N1CCC[C@H](N1)C(=O)OCC(C)(C)C2 (atropisomer, axis not shown)	1000 to 10000 nM
C=CC(=O)N1C[C@H](C(=O)N(C)[C@H](C(=O)N[C@H]2Cc3cccc(c3)-c3ccc4c(c3)c(c(-c3cccnc3[C@H](C)OC)n4CC)CC(C)(C)COC(=O)[C@@H]3CCCN(N3)C2=O)C(C)C)[C@H](C(F)(F)F)C1 (atropisomer, axis not shown)	> 10000 nM

---

Target: NRAS WT (Homo sapiens (Human), UniProt P01111+P62937)
Sequence (P01111 whole entry): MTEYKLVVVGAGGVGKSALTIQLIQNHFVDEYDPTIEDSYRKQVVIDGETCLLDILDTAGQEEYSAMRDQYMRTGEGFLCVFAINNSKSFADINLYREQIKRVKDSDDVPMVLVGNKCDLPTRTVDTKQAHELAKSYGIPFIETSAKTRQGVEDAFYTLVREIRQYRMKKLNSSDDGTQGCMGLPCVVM
Sequence (P62937 whole entry): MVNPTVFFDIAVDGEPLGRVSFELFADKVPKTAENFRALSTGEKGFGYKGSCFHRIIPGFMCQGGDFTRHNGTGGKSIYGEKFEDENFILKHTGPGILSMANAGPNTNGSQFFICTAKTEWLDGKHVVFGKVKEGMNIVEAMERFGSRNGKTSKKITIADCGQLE
Assay: Ras-Raf (BRAF RBD) disruption / FRET / MOA assay, NRAS WT
Type: biochemical
Conditions: read-out: IC50* NRAS WT FRET data

molecule	IC50
CCn1c(-c2cccnc2[C@H](C)OC)c2c3cc(ccc31)-c1cccc(c1)C[C@H](NC(=O)[C@H](C(C)C)N1CO[C@@]3(CCN(C(=O)C#CC(C)(C)N4CCC4)C3)C1=O)C(=O)N1CCC[C@H](N1)C(=O)OCC(C)(C)C2 (atropisomer, axis not shown) [Example A733]	> 10000 nM
C=CC(=O)N1CCC2(CC1)CCN2C(=O)N(C)[C@H](C(=O)N[C@H]1Cc2nc(cs2)-c2ccc3c(c2)c(c(-c2cccnc2[C@H](C)OC)n3CC)CC(C)(C)COC(=O)[C@@H]2CCCN(N2)C1=O)C(C)C (atropisomer, axis not shown) [Example A678]	100 to 1000 nM
C=CC(=O)N1CC[C@H](C(=O)N(C)[C@H](C(=O)N[C@H]2Cc3cc(O)cc(c3)-c3ccc4c(c3)c(c(-c3cc(C)ccc3[C@H](C)OC)n4CC)CC(C)(C)COC(=O)[C@@H]3CCCN(N3)C2=O)C(C)C)C1 (atropisomer, axis not shown) [Example A167]	10 to 100 nM
C=CC(=O)N(C)[C@H]1CN(C(=O)N(C)[C@H](C(=O)N[C@H]2Cc3nc(cs3)-c3ccc4c(c3)c(c(-c3cccnc3[C@H](C)OC)n4CC)CC(C)(C)COC(=O)[C@@H]3CCCN(N3)C2=O)C(C)C)C[C@H]1F (atropisomer, axis not shown) [Example A631]	100 to 1000 nM
CO[C@@H](C)c1ncccc1-c1c2c3cc(ccc3n1CC(F)(F)F)-c1csc(n1)C[C@H](NC(=O)CCOC1CN(C(=O)C#CC(C)(C)N(C)C)C1)C(=O)N1CCC[C@H](N1)C(=O)OCC(C)(C)C2 (atropisomer, axis not shown) [Example A380]	1000 to 10000 nM
C=CC(=O)N1CC[C@H](C(=O)N(C)[C@H](C(=O)N[C@H]2Cc3cccc(c3)-c3ccc4c(c3)c(c(-c3cccnc3[C@H](C)OC)n4CC)CC(C)(C)COC(=O)[C@@H]3CCCN(N3)C2=O)C(C)(C)F)C1 (atropisomer, axis not shown) [Example A693]	1000 to 10000 nM
C=CC(=O)N1CC[C@H](C(=O)N(C)[C@H](C(=O)N[C@H]2Cc3nc(cs3)-c3ccc4c(c3)c(c(-c3cccnc3[C@H](C)OC)n4CC(F)(F)F)CC(C)(C)COC(=O)[C@@H]3CCCN(N3)C2=O)C(C)C)C1 (atropisomer, axis not shown) [Example A502]	100 to 1000 nM

---

Target: KRAS G12D (Homo sapiens (Human), UniProt P01116+P62937, G12D)
Sequence (P01116-2 other isoform, or with tags, fused parts or gaps G12D, one chain of several): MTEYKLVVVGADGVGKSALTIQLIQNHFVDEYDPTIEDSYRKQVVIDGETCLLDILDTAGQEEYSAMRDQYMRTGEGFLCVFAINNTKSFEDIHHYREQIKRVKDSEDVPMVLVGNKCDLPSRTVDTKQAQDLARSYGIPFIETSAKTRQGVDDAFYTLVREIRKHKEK
Assay: Ras-Raf (BRAF RBD) disruption / FRET / MOA assay, KRAS G12D
Assay type: biochemical
Conditions: Ras-Raf disruption/FRET/MOA assay; class symbols; read-out: KRAS G12D FRET data IC50
pIC50: −log10 of the molar value.
Readings of pIC50 for the listed compounds
quantity: pIC50

compound	readoutValue
CC#CC(=O)N1CC2(CCN2C(=O)N(C)[C@H](C(=O)N[C@H]2Cc3nc(cs3)-c3ccc4c(c3)c(c(-c3cccnc3[C@H](C)OC)n4CC)CC(C)(C)COC(=O)[C@@H]3CCCN(N3)C2=O)C(C)C)C1 (atropisomer, axis not shown)	5.00 to 6.00
CCn1c(-c2cccnc2COC)c2c3cc(ccc31)-c1cc(O)cc(c1)C[C@H](NC(=O)[C@H](C(C)C)N(C)C(=O)[C@@H]1CCN(C(=O)C#CC(C)(C)N(C)C)C1)C(=O)N1CCC[C@H](N1)C(=O)OCC(C)(C)C2	5.00 to 6.00
C=CC(=O)N1CC[C@H](C(=O)N(C)[C@H](C(=O)N[C@H]2Cc3cccc(c3)-c3ccc4c(c3)c(c(-c3cccnc3[C@H](C)OC)n4CC#CC)CC(C)(C)COC(=O)[C@@H]3CCCN(N3)C2=O)C(C)C)C1 (atropisomer, axis not shown)	< 5.00
CCn1c(-c2cccnc2[C@H](C)OC)c2c3cc(ccc31)-c1csc(n1)C[C@H](NC(=O)C[C@@H]1COC3(CN(C(=O)C#CC(C)(C)N(C)C)C3)O1)C(=O)N1CCC[C@H](N1)C(=O)OCC(C)(C)C2 (atropisomer, axis not shown)	5.00 to 6.00
C=CC(=O)N1CC[C@H](C(=O)N(C)[C@H](C(=O)NC2C[C@@H]3CN(CCO3)c3ccc4c(c3)c(c(-c3cccnc3[C@H](C)OC)n4CC)CC(C)(C)COC(=O)[C@@H]3CCCN(N3)C2=O)C(C)C)C1 (some centres unmarked)	< 5.00
